Sourced from patent US20260242735A1

Experimental System: human CD33 Q24L (human, UniProt P20138 18-364)
Sequence (P20138 18-364 Q24L limits assumed): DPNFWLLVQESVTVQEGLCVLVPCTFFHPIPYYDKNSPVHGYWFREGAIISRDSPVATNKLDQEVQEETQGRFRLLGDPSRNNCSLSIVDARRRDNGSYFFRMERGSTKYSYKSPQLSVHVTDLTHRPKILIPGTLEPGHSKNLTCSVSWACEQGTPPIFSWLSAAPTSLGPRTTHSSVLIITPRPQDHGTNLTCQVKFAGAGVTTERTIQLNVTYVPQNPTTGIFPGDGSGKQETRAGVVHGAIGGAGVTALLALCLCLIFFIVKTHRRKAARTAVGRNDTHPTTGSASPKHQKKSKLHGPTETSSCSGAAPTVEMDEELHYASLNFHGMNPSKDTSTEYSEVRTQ
Test Description: flow cytometry, mutant on cells, IgG
Let's look at some binders and their measured Mean % WT Binding.
Just the number please, in % WT binding, no unit attached.

The examples below pair each entry with its known result.
>>> experimental_value("Refmab #3 (antibody, human IgG1, V domains shown, Tested in IgG format; human IgG1 Fc silent (PG-LALA)) VH: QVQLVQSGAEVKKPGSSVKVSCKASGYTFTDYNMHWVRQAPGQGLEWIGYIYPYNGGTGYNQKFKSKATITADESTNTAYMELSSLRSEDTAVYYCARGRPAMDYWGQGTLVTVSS VL: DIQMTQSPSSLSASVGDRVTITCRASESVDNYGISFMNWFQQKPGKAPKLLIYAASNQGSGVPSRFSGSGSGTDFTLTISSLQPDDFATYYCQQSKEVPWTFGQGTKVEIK")
11.8
>>> experimental_value("Refmab #2 (antibody, human IgG1, V domains shown, Tested in IgG format; human IgG1 Fc silent (PG-LALA)) VH: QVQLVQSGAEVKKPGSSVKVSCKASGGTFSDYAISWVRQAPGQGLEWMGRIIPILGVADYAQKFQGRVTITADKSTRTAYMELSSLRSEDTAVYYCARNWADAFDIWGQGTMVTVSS VL: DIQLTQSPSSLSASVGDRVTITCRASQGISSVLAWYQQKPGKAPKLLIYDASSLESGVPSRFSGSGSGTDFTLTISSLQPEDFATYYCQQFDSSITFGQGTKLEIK")
102
>>> experimental_value("Refmab #4 (antibody, human IgG1, V domains shown, Tested in IgG format; human IgG1 Fc silent (PG-LALA)) VH: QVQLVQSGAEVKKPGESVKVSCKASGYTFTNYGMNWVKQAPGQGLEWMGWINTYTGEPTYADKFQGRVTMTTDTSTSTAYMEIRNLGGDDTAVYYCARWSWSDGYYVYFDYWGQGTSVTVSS VL: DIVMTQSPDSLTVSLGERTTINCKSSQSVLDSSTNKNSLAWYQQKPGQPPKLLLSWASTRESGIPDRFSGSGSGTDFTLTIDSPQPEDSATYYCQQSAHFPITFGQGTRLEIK")
97

// query Mean % WT Binding value for entry Refmab #1 (antibody, human IgG1, V domains shown, Tested in IgG format; human IgG1 (Absolute Antibody hP67.6, Cat. No. Ab00283-10.0); also called hP67.6) VH: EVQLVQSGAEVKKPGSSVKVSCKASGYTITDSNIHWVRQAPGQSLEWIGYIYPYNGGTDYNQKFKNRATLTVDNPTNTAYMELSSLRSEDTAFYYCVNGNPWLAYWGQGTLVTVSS VL: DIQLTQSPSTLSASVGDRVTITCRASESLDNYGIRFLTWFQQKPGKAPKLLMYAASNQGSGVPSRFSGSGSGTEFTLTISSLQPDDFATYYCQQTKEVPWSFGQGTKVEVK
80.9
